- PROTOCOL_NOTES: NCI Yeast Anticancer Drug Screen. Data for the mlh1 rad18 strain (AID 175)
- TEST_SETTINGS: S. cerevisiae mlh1 rad18 strain growth inhibition; at 50.0 µM
Compounds without any hit were thinned out: in the full panel of roughly 79,000, 15% have a hit. Calls of active or inactive are those of the source. Cut-off read from the data, not from the text of the source: active = growth inhibition above about 70%; inactive = the rest.
Output constraint: value belongs to active, inactive

**Query** Call for entry `COC(=O)Nc1cccc(NC(=O)C(=O)O)c1` :
**Result** inactive

**Query** Again, but for CCSC(SCC)C(NC(C)=O)C(O)C(O)COC(=O)c1ccccc1 (configuration not stated)
**Result** inactive

**Query** Again, but for `CN1C(=O)C(=C2CCCCC2)SC1=S`
**Result** inactive

**Query** Again, but for CCCCCC(=O)C(C)C1(C(=O)OC)NC(=S)NC(=O)C1C#N (configuration not stated)
**Result** inactive

**Query** Again, but for CC(CCC(=O)O)[C@H]1CCC2[C@@H]3C(=O)C[C@@H]4CC(O)CC[C@]4(C)C3CC[C@@]21C (some centres not stated)
**Result** inactive

**Query** Again, but for `CC(=O)OC1=C(C)C2=C3OC(=O)C(C)=C3CC[C@@]2(C)CC1`
**Result** inactive

**Query** Again, but for O=C1C2C=CC(n3[nH]c(=O)n(Cc4ccccc4)c3=O)CC2C(=O)N1c1ccc(Br)cc1 (configuration not stated)
**Result** inactive

**Query** Again, but for `COc1ccc(Nc2nnc(-c3nsc4ccccc34)s2)cc1`
**Result** inactive

**Query** Again, but for `[O-][n+]1c2ccc(Cl)cc2nc2ccc(Cl)cc21`
**Result** inactive

**Query** Again, but for CCOC(=O)Nc1ccc(C2OCCS2)cc1 (configuration not stated)
**Result** inactive

**Query** Again, but for Nc1nc2c(ncn2C2OC(CO)C3OP(=O)(O)OC32)c(=O)[nH]1 (configuration not stated)
**Result** inactive

**Query** Again, but for `CCOC(=O)Cc1ccc(OC)c(OC)c1`
**Result** inactive

**Query** Again, but for CC1(C)CC[C@]2(C(=O)O)[C@H](O)C[C@]3(C)C(=CC[C@@H]4[C@@]5(C)CC[C@H](OC6OC(C(=O)O)C(O)C(O)C6O)C(C)(C)[C@@H]5CC[C@]43C)[C@@H]2C1 (some centres not stated)
**Result** active

**Query** Again, but for Cc1ccc(NC(=O)CCC(=O)C(C#N)c2ccc(Cl)cc2)cc1C (configuration not stated)
**Result** inactive

**Query** Again, but for `NC(=O)c1ccccc1[N+](=O)[O-]`
**Result** inactive

**Query** Again, but for `c1cc(CSC2=NCCN2)ccc1CSC1=NCCN1`
**Result** inactive

**Query** Again, but for `Nc1ccn[nH]1`
**Result** inactive

**Query** Again, but for CC1(CO)COC(=O)C(C)(C2(C)NC(C)(CO)COC2=O)N1 (configuration not stated)
**Result** inactive

**Query** Again, but for N#CC1=C(c2ccccc2)NN(Cc2ccccc2)C(c2ccc(Cl)cc2)CC1=O (configuration not stated)
**Result** inactive

**Query** Again, but for `c1cc(C[S+]2CCCC2)ccc1C[S+]1CCCC1`
**Result** inactive

**Query** Again, but for `COc1c(C)c(C)c(OC)c(CC(=O)O)c1C`
**Result** inactive

**Query** Again, but for `CCOc1ccccc1C=Nc1cc(C(C)C)c(O)cc1C`
**Result** inactive

**Query** Again, but for `COc1ccc(C(=O)OC2CCCC2)cc1`
**Result** inactive

**Query** Again, but for `COc1ccc(NC(=O)CC(=O)N/N=C(/C)c2cc3cc(N=Nc4ccccc4Cl)ccc3oc2=O)cc1`
**Result** inactive

**Query** Again, but for `CCC(=O)Oc1ccc(CCC(C)=O)cc1OC`
**Result** inactive

**Query** Again, but for `Nc1nc(N)c(N=Nc2ccccc2[N+](=O)[O-])c(=O)[nH]1`
**Result** inactive

**Query** Again, but for `C/C=C/[C@@H]1[C@H]2C(=O)[C@]3(Cl)[C@@H](/C=C/C)[C@@H]3C(=O)[C@@]12Cl`
**Result** inactive

**Query** Again, but for O=C(O)C1CCCN1Cc1ccc2c(c1)OCO2 (configuration not stated)
**Result** inactive

**Query** Again, but for `CC(=O)OCCn1cnc2c(NCC=C(C)C)ncnc21`
**Result** inactive

**Query** Again, but for `O=C(O)COc1cccc2ccccc12`
**Result** inactive

**Query** Again, but for `CSc1cc(/C=C/c2ccccc2)ccc1N`
**Result** inactive

**Query** Again, but for `O=S(=O)(Cc1c[nH]c2ccccc12)c1ccccc1`
**Result** inactive

**Query** Again, but for `Cc1nc(N)c2nc(SC(C)C)c(N)nc2n1`
**Result** inactive

**Query** Again, but for `N#C/C(C(=O)Nc1ccccc1)=C(/N)N1CCCC1`
**Result** inactive

**Query** Again, but for `Cc1cc(S(=O)(=O)Nc2n[nH]c(-c3ccc(Cl)cc3)n2)c(SSc2cc(Cl)c(C)cc2S(=O)(=O)Nc2n[nH]c(-c3ccc(Cl)cc3)n2)cc1Cl`
**Result** inactive

**Query** Again, but for `Cc1ccc([N+](=O)[O-])cc1NC(=O)Cc1ccccc1`
**Result** inactive

**Query** Again, but for C/C=C(\CC)C(C)(C#N)C(=O)OCC (configuration not stated)
**Result** inactive

**Query** Again, but for `CCN(CC)CCC(=O)O`
**Result** inactive

**Query** Again, but for `Cc1ccnc(=O)[nH]1`
**Result** inactive

**Query** Again, but for `CCOC(=O)C(C)(Cc1ccco1)C(=O)OCC`
**Result** inactive

**Query** Again, but for `CNC(=O)OCc1c(COC(=O)NC)c(C)n(-c2ccc(OC)cc2)c1C`
**Result** inactive

**Query** Again, but for CC1CCCC(C)C1CO (configuration not stated)
**Result** inactive

**Query** Again, but for COc1ccc(-c2cc(-c3ccco3)c(C#N)c(=S)n2C2OC(COC(C)=O)C(OC(C)=O)C(OC(C)=O)C2OC(C)=O)cc1 (configuration not stated)
**Result** inactive

**Query** Again, but for `CCN(CC)CN1C(=O)C(=O)c2ccccc21`
**Result** inactive

**Query** Again, but for `CC(=O)c1cc2c(cc1C(C)C)CC[C@H]1[C@](C)(C#N)CCC[C@]21C`
**Result** inactive

**Query** Again, but for OC(CCN1CCC2CCC(C2)C1)(c1ccccc1)c1ccc(Cl)cc1 (configuration not stated)
**Result** inactive

**Query** Again, but for `COC(=O)Nn1c(C)c(C(=O)Nc2ccc(OC)cc2)c(C(=O)OC)c1C`
**Result** inactive
